Reported values of LC50 TBW C (contact) for individual entries
Test system: Tobacco Budworm [Heliothis virescens (Fabricius)] larvae
Test: Tobacco budworm larvae, contact (TBW-C), 5 days
Format: in vivo
Settings: percent in solution, second-instar larvae
Method: The compounds in Tables 1 and 2 above were tested for insecticidal activity using the following testing procedures. LC50 values, based on the results of these tests and calculated according to dosage-mortality curves, are expressed in Table 3. Tobacco Budworm [Heliothis virescens (Fabricius)]: (a) Contact: Test compounds were diluted in a 50-50 acetone-water solution. […] The dishes were placed in a high humidity chamber for 5 days, and percent mortality of the larvae recorded. […]
Just the number please, in %, no unit attached.

Examples with answers:
>  <compound>
Cc1c(Cl)cccc1N=C(OCc1cccc(Oc2ccccc2)c1)C(Cl)Cl [Compound 97]

>  <LC50 TBW C (contact) [%]>
0.004

$$$$
>  <compound>
CCC(C)C(=Nc1ccc(F)c(Cl)c1)OCc1cccc(Oc2ccc(F)cc2)c1 (centres unmarked) [Compound 210]

>  <LC50 TBW C (contact) [%]>
0.0015

$$$$

Ask: Endpoint output: LC50 TBW C (contact) of COc1ccc(N=C(OCc2cccc(Oc3ccccc3)c2)C(C)C)c(OC)c1 [Compound 146] . Value?
Reply: 0.025

Ask: Same read-out for CC(C)C(=Nc1ccc(Br)cc1)OCc1cccc(Oc2ccc(F)cc2)c1 [Compound 226] ?
Reply: 0.001

Ask: Same read-out for CC(C)C(=Nc1ccc(F)c(Br)c1)OCc1ccc(F)c(Oc2ccc(Cl)cc2)c1 [Compound 298] ?
Reply: 0.0008

----------
tested on: Rice water weevil [Lissorhoptrus oryzophilus (Kuschel)]; assay: Rice water weevil topical (RWW), 48 hours; assay type: in vivo; conditions: μg of test compound per weevil, female adults
assay_endpoint: LC50 RWW (µg)
Just the number please, in µg, no unit attached.

Examples with answers:
>  <smiles_input>
CC(C)C(=Nc1ccc(C(F)(F)F)cc1)OCc1ccc(F)c(Oc2ccccc2)c1

>  <assay_endpoint>
LC50 RWW

>  <quantitative_readout>
0.067

$$$$
>  <smiles_input>
C=C(C)C(=Nc1ccc(C(F)(F)F)cc1)OCc1ccc(F)c(Oc2ccccc2)c1

>  <assay_endpoint>
LC50 RWW

>  <quantitative_readout>
0.084

$$$$
>  <smiles_input>
CC(C)C(=Nc1ccc2c(c1)OC(F)(F)O2)OCc1ccc(F)c(Oc2ccccc2)c1

>  <assay_endpoint>
LC50 RWW

>  <quantitative_readout>
0.13

$$$$
>  <smiles_input>
CC(C)C(=Nc1ccc(OC(F)(F)F)cc1)OCc1ccc(F)c(Oc2ccccc2)c1

>  <assay_endpoint>
LC50 RWW

>  <quantitative_readout>
0.044

$$$$

Ask: Endpoint output: LC50 RWW of `CC(C)C(=Nc1ccc(F)c(C(F)(F)F)c1)OCc1ccc(F)c(Oc2ccccc2)c1` . Value?
Reply: 0.075

Ask: Same read-out for `CC(C)C(=Nc1ccc(Cl)c(Cl)c1)OCc1ccc(F)c(Oc2ccc(F)cc2)c1` ?
Reply: 0.082

Ask: Same read-out for `CC(C)C(=Nc1ccc(OC(F)(F)F)cc1)OCc1ccc(F)c(Oc2ccc(Cl)cc2)c1` ?
Reply: 0.16

----------
Reported values of LC50 TBW C (contact) for individual entries
Tested on: Tobacco Budworm [Heliothis virescens (Fabricius)] larvae
Test: Tobacco budworm larvae, contact (TBW-C), 5 days
Type: in vivo
Settings: percent in solution, second-instar larvae
Experimental: The compounds in Tables 1 and 2 above were tested for insecticidal activity using the following testing procedures. LC50 values, based on the results of these tests and calculated according to dosage-mortality curves, are expressed in Table 3. Tobacco Budworm [Heliothis virescens (Fabricius)]: (a) Contact: Test compounds were diluted in a 50-50 acetone-water solution. […] The dishes were placed in a high humidity chamber for 5 days, and percent mortality of the larvae recorded. […]
Just the number please, in %, no unit attached.

>  <smiles_input>
CC(C)C(=Nc1ccc(F)c(F)c1F)OCc1ccc(F)c(Oc2ccc(F)cc2)c1

>  <unit_of_measure>
%

>  <quantitative_readout>
0.0004

$$$$
>  <smiles_input>
CC(C)C(=Nc1ccc(F)c(F)c1)OCc1cccc(Oc2ccc(F)cc2)c1

>  <unit_of_measure>
%

>  <quantitative_readout>
0.0009

$$$$
>  <smiles_input>
CC(C)C(=Nc1cccc(I)c1)OCc1ccc(F)c(Oc2ccc(F)cc2)c1

>  <unit_of_measure>
%

>  <quantitative_readout>
0.007

$$$$
>  <smiles_input>
CC(C)C(=Nc1ccc(Cl)c(Cl)c1)OCc1cccc(Oc2ccccc2)c1

>  <unit_of_measure>
%

>  <quantitative_readout>
0.0008

$$$$
>  <smiles_input>
CC(C)C(=Nc1ccc(C(F)(F)F)cc1)OCc1ccc(F)c(Oc2ccc(Cl)cc2)c1

>  <unit_of_measure>
%

>  <quantitative_readout>
0.0004

$$$$
>  <smiles_input>
CC(C)C(=Nc1cccc(F)c1)OCc1cccc(Oc2ccccc2)c1

>  <unit_of_measure>
%

>  <quantitative_readout>
0.002

$$$$

Ask: Endpoint output: LC50 TBW C (contact) of `CC(=O)c1ccc(N=C(OCc2cccc(Oc3ccccc3)c2)C(C)C)cc1` . Value?
Reply: 0.0075

Ask: Same read-out for `CC(C)C(=Nc1ccc(Cl)cc1)OCc1cccc(Oc2ccc(Cl)cc2)c1` ?
Reply: 0.001
